Source of measurements: patent US9163030B2

assay.system: UniProt P35372
assay.procedure: [35S]GTP-γ-S binding assay, hMOR-CHO cells
Measured pEC50, listed per entry for reference.
Schema: pEC50 number; meaning minus log10 of the concentration expressed in molar units.

// pEC50 lookup, compound = CN1CCC23c4c5ccc(O)c4OC2c2ncc(-c4ccc(Cl)cc4)cc2CC3(OCC=Cc2ccccc2)C1C5 (stereo not drawn) [Compound 17g] , result: 8.37

Further cases:
pEC50 reported for this compound CN1CCC23c4c5ccc(O)c4OC2c2ncc(-c4ccc(Cl)cc4)cc2CC3(OC(=O)c2ccccc2)C1C5 (stereo not drawn) [Compound 18d] : 5.34

Entry CN1CCC23c4c5ccc(O)c4OC2c2ncc(-c4ccc(Cl)cc4)cc2CC3(OC(=O)CCc2ccccc2)C1C5 (stereo not drawn) [Compound 18f] , pEC50 reported as 7.32

====

assay.system: MOR (Homo sapiens, UniProt P35372)
Construct: expressed in transfected cells; host or cells: CHO (hMOR-CHO)
Sequence (P35372 whole entry): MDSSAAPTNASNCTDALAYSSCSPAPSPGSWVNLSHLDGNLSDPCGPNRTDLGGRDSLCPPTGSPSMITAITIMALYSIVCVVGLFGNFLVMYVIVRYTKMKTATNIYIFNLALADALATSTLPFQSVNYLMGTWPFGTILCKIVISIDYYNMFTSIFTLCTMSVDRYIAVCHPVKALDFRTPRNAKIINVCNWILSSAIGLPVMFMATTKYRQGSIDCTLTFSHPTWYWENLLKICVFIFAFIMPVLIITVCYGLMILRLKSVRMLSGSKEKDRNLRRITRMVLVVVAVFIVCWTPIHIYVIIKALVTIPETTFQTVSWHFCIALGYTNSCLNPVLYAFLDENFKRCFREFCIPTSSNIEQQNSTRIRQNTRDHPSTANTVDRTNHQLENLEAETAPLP
assay.procedure: Opioid binding assay, displacement of [3H]DAMGO, hMOR-CHO cell membranes
test.readout: pKi
Scale for pKi: -log10 of concentration given in mol/L; no unit attached.

The compound Oc1ccc2c3c1OC1c4ncc(-c5ccc(Cl)cc5)cc4CC4(OCc5ccccc5)C(C2)N(CC2CC2)CCC314 (stereo not drawn) [Compound 17b] showed pKi equal to 8.07

# pKi (compound: Oc1ccc2c3c1OC1c4ncc(-c5ccc(Cl)cc5)cc4CC4(OCC=Cc5ccccc5)C(C2)N(CC2CC2)CCC314 (stereo not drawn) [Compound 17c] ) is 8.52

Briefly, pKi measured for CN1CCC23c4c5ccc(O)c4OC2c2ncc(-c4ccc(Cl)cc4)cc2CC3(OC(=O)Cc2ccccc2)C1C5 (stereo not drawn) [Compound 18e] : 8.84

Please fill in: pKi reported for O=C(OC12Cc3cc(-c4ccc(Cl)cc4)cnc3C3Oc4c(O)ccc5c4C31CCN(CC1CC1)C2C5)c1ccccc1 (stereo not drawn) [Compound 18a] = 6.72

Summary for this compound, COC12Cc3cc(-c4ccc(Cl)cc4)cnc3C3Oc4c(O)ccc5c4C31CCN(C)C2C5 (stereo not drawn) [Compound 17e] : pKi is 8.10

Could you now look at the following compound, please?
pKi recorded for this compound, CN1CCC23c4c5ccc(O)c4OC2c2ncc(-c4ccc(Cl)cc4)cc2CC3(OCCCc2ccccc2)C1C5 (stereo not drawn) [Compound 17h] , is 9.27

====

assay.system: KOR (Homo sapiens)
Construct: expressed in transfected cells; host or cells: CHO (hKOR-CHO)
Sequence (P41145 whole entry): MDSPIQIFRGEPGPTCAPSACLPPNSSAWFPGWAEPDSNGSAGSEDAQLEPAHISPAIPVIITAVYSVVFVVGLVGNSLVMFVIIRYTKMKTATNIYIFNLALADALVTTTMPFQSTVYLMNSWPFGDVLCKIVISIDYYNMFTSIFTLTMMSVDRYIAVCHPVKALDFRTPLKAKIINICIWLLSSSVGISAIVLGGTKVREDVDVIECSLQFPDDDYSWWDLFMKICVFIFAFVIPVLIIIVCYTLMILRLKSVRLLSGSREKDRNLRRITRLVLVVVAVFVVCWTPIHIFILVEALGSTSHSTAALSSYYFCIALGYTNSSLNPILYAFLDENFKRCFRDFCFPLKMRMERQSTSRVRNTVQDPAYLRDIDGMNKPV
assay.procedure: biochemical
Assay type: binding
condition.parameters: ratio of Ki values, CHO membranes
test.readout: selectivity ratio KOR/DOR

Study these solved cases before continuing.
KOR (Homo sapiens) selectivity ratio KOR/DOR of O=C(CCc1ccccc1)O[C@@]12Cc3cc(-c4ccc(Cl)cc4)cnc3[C@@H]3Oc4c(O)ccc5c4[C@@]31CCN(CC1CC1)[C@@H]2C5 [Compound 18c] is 2.9

Fill in: KOR (Homo sapiens) selectivity ratio KOR/DOR for CN1CCC23c4c5ccc(O)c4OC2c2ncc(-c4ccc(Cl)cc4)cc2CC3(OC(=O)c2ccccc2)C1C5 (stereo not shown) [Compound 18d] = 6.6

The compound CN1CCC23c4c5ccc(O)c4OC2c2ncc(-c4ccc(Cl)cc4)cc2CC3(OC(=O)Cc2ccccc2)C1C5 (stereo not shown) [Compound 18e] on KOR (Homo sapiens): selectivity ratio KOR/DOR was 18

The reported KOR (Homo sapiens) selectivity ratio KOR/DOR of CN1CCC23c4c5ccc(O)c4OC2c2ncc(-c4ccc(Cl)cc4)cc2CC3(OCC=Cc2ccccc2)C1C5 (stereo not shown) [Compound 17g] is 1.4

Observed selectivity ratio KOR/DOR, KOR (Homo sapiens), O=C(Cc1ccccc1)OC12Cc3cc(-c4ccc(Cl)cc4)cnc3C3Oc4c(O)ccc5c4C31CCN(CC1CC1)C2C5 (stereo not shown) [Compound 18b] : 2.3

New cases:
Field selectivity ratio KOR/DOR (KOR (Homo sapiens)), entry CN1CCC23c4c5ccc(O)c4OC2c2ncc(-c4ccc(Cl)cc4)cc2CC3(OCc2ccccc2)C1C5 (stereo not shown) [Compound 17f] : 28

Summary line: COC12Cc3cc(-c4ccc(Cl)cc4)cnc3C3Oc4c(O)ccc5c4C31CCN(C)C2C5 (stereo not shown) [Compound 17e] , KOR (Homo sapiens), reported selectivity ratio KOR/DOR = 17
